- METHOD NOTES: 28-day twice-daily oral gavage pharmacokinetics in CD1 mice
- Format: in vivo
- CONDITION CONTEXT: female, CD1, mouse, plasma, po, 150 mg/kg, day 28; 150 mg/kg/dose BID oral gavage; F; plasma; read-out: Cmax
ENDPOINT: Cmax (ng/mL)
Answers are plain numbers, in ng/mL.

Entry O=C(Nc1cc(F)c(F)c(F)c1)c1ccc(F)c(S(=O)(=O)N2CCC(O)CC2)c1 [NVR 3-778] — recorded Cmax = 26600

###

- System: HBV
- METHOD NOTES: Antiviral studies using HepG2.2.15 cells (HBV DNA and HBV RNA readouts)
- Format: cell-based, hepatitis B virus (GT D)
- CONDITION CONTEXT: Hepatitis B virus; HepG2.2.15 cells, supernatant; read-out: EC50, secreted HBV DNA (mean)
ENDPOINT: pEC50
One number for each entry, as −log10 of the molar value.

Entry O=C(Nc1cc(F)c(F)c(F)c1)c1ccc(F)c(S(=O)(=O)N2CCC(O)CC2)c1 [NVR 3-778] — recorded pEC50 = 6.40

###

- System: HBV GT D
- METHOD NOTES: Transient-transfection antiviral study in HepG2 cells, GT D
- Assay type: cell-based
- CONDITION CONTEXT: Hepatitis B virus, HepG2, 72 h, read-out: EC50 (mean), HBV GT D
ENDPOINT: EC50

Bench note, HBV GT D: entry O=C(Nc1cc(F)c(F)c(F)c1)c1ccc(F)c(S(=O)(=O)N2CCC(O)CC2)c1 [NVR 3-778] , its EC50 = 430 nM

###

- METHOD NOTES: 28-day twice-daily oral gavage pharmacokinetics in CD1 mice
- Type: in vivo
- CONDITION CONTEXT: female, CD1, mouse, plasma, po, 150 mg/kg, day 1; 150 mg/kg/dose BID oral gavage; F; relative to second daily dose
ENDPOINT: Tmax (min)
Numbers only, in min.

Entry `O=C(Nc1cc(F)c(F)c(F)c1)c1ccc(F)c(S(=O)(=O)N2CCC(O)CC2)c1` — recorded Tmax = 30

###

- METHOD NOTES: 28-day twice-daily oral gavage pharmacokinetics in CD1 mice
- Assay type: in vivo
- CONDITION CONTEXT: female, CD1, mouse, plasma, po, 50 mg/kg, day 1; 50 mg/kg/dose BID oral gavage; F
ENDPOINT: half-life (h)
Give bare numbers, in h.

Entry O=C(Nc1cc(F)c(F)c(F)c1)c1ccc(F)c(S(=O)(=O)N2CCC(O)CC2)c1 [NVR 3-778] — recorded half-life = 2.2
